# assay_target: AChE (Type VI-S; from Electrophorus electricus) (Electrophorus electricus)
# Construct: AChE (Type VI-S; from Electrophorus electricus); purchased Sigma-Aldrich Type VI-S (catalogue number not given)
# Sequence (O42275 24-633): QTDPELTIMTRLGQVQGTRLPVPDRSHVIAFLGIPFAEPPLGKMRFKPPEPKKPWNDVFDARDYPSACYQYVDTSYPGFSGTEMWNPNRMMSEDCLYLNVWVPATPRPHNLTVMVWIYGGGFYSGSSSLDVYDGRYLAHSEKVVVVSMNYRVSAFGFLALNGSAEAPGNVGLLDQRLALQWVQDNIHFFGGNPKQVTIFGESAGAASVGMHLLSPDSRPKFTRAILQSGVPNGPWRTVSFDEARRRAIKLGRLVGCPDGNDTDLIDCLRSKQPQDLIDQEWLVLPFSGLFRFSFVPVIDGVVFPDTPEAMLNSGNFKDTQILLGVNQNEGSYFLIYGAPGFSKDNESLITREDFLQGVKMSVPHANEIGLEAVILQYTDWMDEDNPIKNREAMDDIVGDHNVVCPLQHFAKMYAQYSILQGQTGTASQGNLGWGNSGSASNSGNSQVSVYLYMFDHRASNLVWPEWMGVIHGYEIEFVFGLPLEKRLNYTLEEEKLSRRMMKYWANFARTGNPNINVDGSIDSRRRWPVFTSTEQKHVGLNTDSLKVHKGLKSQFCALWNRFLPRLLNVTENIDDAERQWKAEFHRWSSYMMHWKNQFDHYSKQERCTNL
# protocol_text: biochemical
# measurement_conditions: read-out: Residual activity at 10 µM (%) AChE, inhibitor 10 µM; 15 min preincubation
outcome_measure: remaining activity at 10 µM (%)

INSERT INTO assay_data (compound, comparator, numeric_readout) VALUES
  ('C/C=C(/C)C(=O)O[C@@H]1c2c(ccc3ccc(=O)oc23)OC(C)(C)[C@@H]1OC(=O)/C(C)=C\C [PJ7, anomalin]', '=', 75.4),
  ('C/C=C(/C)C(=O)O[C@@H]1c2c(ccc3ccc(=O)oc23)OC(C)(C)[C@@H]1OC(=O)C(C)CC (stereo partly shown) [PJ12]', '=', 58.3),
  ('C/C=C(/C)C(=O)O[C@@H]1[C@H](OC(=O)C(C)CC)c2c(ccc3ccc(=O)oc23)OC1(C)C (stereo partly shown) [PJ13]', '<', 50),
  ('C/C=C(/C)C(=O)O[C@@H]1[C@H](OC(=O)C=C(C)C)c2c(ccc3ccc(=O)oc23)OC1(C)C [PJ6, calipteryxin]', '=', 76.3);
